biological target: Cytochrome P450 1A2 (Homo sapiens, UniProt P05177)
Sequence (P05177 whole entry): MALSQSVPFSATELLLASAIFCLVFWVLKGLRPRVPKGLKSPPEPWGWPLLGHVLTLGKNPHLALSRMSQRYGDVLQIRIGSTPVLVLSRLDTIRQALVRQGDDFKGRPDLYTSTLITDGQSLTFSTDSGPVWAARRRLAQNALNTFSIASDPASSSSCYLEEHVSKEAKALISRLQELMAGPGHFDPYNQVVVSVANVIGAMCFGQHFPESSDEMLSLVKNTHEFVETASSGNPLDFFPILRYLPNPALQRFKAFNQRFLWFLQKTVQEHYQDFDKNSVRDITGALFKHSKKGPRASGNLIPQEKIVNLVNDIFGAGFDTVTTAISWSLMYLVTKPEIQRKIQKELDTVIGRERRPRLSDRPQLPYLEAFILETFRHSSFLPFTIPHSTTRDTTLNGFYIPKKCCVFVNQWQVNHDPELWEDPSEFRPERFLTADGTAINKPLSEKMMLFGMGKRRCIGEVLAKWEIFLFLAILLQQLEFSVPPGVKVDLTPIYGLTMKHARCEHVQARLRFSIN
EXPERIMENTAL_ENDPOINT: IC50

**Q:** Could you share which IC50 value was measured for `C/C(=N\NC(=O)c1cccc(S(=O)(=O)N2CCOCC2)c1)c1cc(Cl)ccc1O` ?
**A:** > 10 µM

---

molecular target: Voltage-gated inwardly rectifying potassium channel KCNH2 (Homo sapiens)
Sequence (Q12809 whole entry): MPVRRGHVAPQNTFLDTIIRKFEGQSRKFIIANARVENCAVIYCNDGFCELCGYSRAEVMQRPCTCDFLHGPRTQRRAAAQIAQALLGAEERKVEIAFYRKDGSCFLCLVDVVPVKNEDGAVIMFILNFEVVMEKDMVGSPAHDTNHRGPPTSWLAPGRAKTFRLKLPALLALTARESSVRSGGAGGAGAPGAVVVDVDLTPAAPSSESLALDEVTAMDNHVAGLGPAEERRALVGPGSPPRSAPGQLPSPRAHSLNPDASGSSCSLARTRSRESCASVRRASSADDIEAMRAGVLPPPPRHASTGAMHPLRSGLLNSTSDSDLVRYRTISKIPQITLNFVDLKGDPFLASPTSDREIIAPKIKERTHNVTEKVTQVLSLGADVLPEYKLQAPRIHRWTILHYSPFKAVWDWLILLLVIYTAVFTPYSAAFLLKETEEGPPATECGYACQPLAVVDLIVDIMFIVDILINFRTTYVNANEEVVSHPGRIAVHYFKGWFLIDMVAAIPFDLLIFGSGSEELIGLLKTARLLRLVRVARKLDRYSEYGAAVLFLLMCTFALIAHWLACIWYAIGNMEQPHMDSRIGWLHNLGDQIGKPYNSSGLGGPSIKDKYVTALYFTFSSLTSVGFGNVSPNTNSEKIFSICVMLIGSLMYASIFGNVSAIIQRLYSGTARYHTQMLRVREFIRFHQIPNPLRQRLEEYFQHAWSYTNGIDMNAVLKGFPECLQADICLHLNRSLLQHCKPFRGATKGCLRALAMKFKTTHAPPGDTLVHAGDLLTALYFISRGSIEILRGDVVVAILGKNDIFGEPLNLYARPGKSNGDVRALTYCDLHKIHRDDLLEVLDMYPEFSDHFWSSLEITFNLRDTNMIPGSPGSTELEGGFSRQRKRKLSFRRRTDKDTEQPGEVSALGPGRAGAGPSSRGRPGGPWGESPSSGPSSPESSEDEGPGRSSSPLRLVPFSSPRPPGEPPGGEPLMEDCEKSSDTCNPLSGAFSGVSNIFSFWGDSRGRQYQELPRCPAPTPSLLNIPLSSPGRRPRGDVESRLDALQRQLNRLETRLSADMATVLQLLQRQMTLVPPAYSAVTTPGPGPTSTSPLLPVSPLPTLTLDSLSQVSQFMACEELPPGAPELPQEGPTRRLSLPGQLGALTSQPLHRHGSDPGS
EXPERIMENTAL_ENDPOINT: IC50

**Q:** For the compound `C/C(=N\NC(=O)c1cccc(S(=O)(=O)N2CCOCC2)c1)c1cc(Cl)ccc1O` , what IC50 is on record?
**A:** > 10 µM

---

molecular target: Cytochrome P450 3A4 (Homo sapiens, UniProt P08684)
Sequence (P08684 whole entry): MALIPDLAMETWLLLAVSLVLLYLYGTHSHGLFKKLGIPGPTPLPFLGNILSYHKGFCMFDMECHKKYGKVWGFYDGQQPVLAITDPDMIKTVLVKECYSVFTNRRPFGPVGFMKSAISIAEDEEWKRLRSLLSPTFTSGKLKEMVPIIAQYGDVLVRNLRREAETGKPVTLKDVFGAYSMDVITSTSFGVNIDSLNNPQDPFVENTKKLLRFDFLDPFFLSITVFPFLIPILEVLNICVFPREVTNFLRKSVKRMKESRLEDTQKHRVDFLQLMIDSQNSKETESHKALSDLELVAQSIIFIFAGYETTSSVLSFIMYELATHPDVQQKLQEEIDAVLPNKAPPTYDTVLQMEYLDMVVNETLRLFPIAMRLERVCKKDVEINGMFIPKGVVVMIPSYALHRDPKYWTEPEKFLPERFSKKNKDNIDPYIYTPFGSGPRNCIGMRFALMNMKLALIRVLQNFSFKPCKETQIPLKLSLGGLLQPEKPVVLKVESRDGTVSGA
EXPERIMENTAL_ENDPOINT: IC50 (µM)
Respond with the bare value in µM.

**Q:** Which IC50 value belongs to `C/C(=N\NC(=O)c1cccc(S(=O)(=O)N2CCOCC2)c1)c1cc(Cl)ccc1O` ?
**A:** 2.61

---

target: Cytochrome P450 2C19 (Homo sapiens)
Sequence (P33261 whole entry): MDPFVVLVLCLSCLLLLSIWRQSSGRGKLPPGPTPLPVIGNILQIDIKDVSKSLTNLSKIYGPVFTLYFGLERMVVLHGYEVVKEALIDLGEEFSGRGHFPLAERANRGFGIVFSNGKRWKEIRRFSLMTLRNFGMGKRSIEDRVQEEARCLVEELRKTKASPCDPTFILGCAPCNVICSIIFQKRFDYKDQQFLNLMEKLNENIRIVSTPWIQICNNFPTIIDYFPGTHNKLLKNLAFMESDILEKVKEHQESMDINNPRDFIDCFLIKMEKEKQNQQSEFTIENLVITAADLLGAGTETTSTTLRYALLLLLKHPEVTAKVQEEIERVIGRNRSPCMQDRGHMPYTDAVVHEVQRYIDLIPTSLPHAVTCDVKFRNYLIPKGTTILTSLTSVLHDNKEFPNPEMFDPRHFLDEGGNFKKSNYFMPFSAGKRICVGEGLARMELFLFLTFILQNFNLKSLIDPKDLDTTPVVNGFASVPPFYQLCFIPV
EXPERIMENTAL_ENDPOINT: pIC50
Quick note: pIC50 values are minus log10 of concentrations in mol/L.

**Q:** State the recorded pIC50 for this entry: `C/C(=N\NC(=O)c1cccc(S(=O)(=O)N2CCOCC2)c1)c1cc(Cl)ccc1O`
**A:** 5.01

---

molecular target: Lysine-specific histone demethylase 1A (Homo sapiens, UniProt O60341); test: Non-competitive inhibition of recombinant full-length His6-tagged LSD1 (unknown origin) using dimethylated K4N-terminal H3 peptide as substrate at 3 nM by Michaelis-Menten plot analysis
EXPERIMENTAL_ENDPOINT: Ki (nM)
Could you give me the number in nM? Just the number is fine.

**Q:** Value wanted: Ki (Lysine-specific histone demethylase 1A (Homo sapiens, UniProt O60341)) of entry `C/C(=N\NC(=O)c1cccc(S(=O)(=O)N2CCOCC2)c1)c1cc(Cl)ccc1O`
**A:** 35.3

---

target: Lysine-specific histone demethylase 1A (Homo sapiens); experiment: Non-competitive inhibition of recombinant full-length His6-tagged LSD1 (unknown origin) using dimethylated K4N-terminal H3 peptide as substrate at 1 nM by Michaelis-Menten plot analysis
EXPERIMENTAL_ENDPOINT: pKi
Reminder that pKi is minus the log10 of a molar concentration.

**Q:** Requested read-out: pKi. Entry: `C/C(=N\NC(=O)c1cccc(S(=O)(=O)N2CCOCC2)c1)c1cc(Cl)ccc1O`
**A:** 7.87

---

target: Lysine-specific histone demethylase 1A (Homo sapiens, UniProt O60341); test: Non-competitive inhibition of recombinant full-length His6-tagged LSD1 (unknown origin) using dimethylated K4N-terminal H3 peptide as substrate at 30 nM by Michaelis-Menten plot analysis
EXPERIMENTAL_ENDPOINT: pKi
# pKi = -log10(concentration in molar units)

**Q:** I'd like to know its pKi. The molecule in question is `C/C(=N\NC(=O)c1cccc(S(=O)(=O)N2CCOCC2)c1)c1cc(Cl)ccc1O`
**A:** 7.45

---

molecular target: Amine oxidase [flavin-containing] B (Homo sapiens, UniProt P27338)
Sequence (P27338 whole entry): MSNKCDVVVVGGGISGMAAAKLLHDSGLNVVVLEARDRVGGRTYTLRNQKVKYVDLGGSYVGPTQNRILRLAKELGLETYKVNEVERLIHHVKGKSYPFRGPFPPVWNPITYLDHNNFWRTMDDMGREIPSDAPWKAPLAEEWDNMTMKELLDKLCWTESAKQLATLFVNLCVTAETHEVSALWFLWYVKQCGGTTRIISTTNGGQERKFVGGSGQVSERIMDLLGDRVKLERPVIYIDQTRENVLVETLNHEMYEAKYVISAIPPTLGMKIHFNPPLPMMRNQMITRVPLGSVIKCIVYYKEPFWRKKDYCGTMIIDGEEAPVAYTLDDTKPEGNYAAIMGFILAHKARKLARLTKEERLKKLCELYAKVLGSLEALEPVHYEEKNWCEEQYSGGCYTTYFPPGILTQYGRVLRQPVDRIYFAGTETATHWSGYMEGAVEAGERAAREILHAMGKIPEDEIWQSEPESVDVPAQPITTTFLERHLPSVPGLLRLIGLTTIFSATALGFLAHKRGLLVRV
EXPERIMENTAL_ENDPOINT: IC50

**Q:** Please give the measured IC50 for this compound: `C/C(=N\NC(=O)c1cccc(S(=O)(=O)N2CCOCC2)c1)c1cc(Cl)ccc1O`
**A:** > 300 µM

// data source = ChEMBL document CHEMBL3102716
